- Tested on: myeloid leukemia patient primary cells Pat.10
- testName: cell viability (% survival relative to DMSO control); higher = less cytotoxic
- cond: 1000 nM; 72 h
For each of the molecules below, state its cell viability.
I only need the number, in %, no unit after it.

Q. I'd like to know its cell viability. The molecule in question is Nc1ccn([C@@H]2O[C@H](CO)[C@@H](O)[C@@H]2O)c(=O)n1
A. 54.1

Q. I'd like to know its cell viability. The molecule in question is CC(Cc1ccc(O)c(O)c1)C(C)Cc1ccc(O)c(O)c1 (centres undefined)
A. 42.2

Q. I'd like to know its cell viability. The molecule in question is C[C@]12O[C@H](C[C@]1(O)CO)n1c3ccccc3c3c4c(c5c6ccccc6n2c5c31)CNC4=O
A. 73.9

Q. I'd like to know its cell viability. The molecule in question is Sc1ncnc2nc[nH]c12
A. 72.4
